Origin of values: paper PMC9482650

# TESTED ON: Inadl_10, Q8NI35
# Sequence (Q8NI35 1673-1763): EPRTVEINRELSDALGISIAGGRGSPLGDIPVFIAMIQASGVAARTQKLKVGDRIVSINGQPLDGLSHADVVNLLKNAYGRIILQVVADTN
# EXPERIMENTAL DETAILS: holdup assay
# Parameters: key: below the threshold = too weak to quantify, mostly under pKd 3.1 to 4
# MEASUREMENT CONTEXT: plain residues with an end cap or a label only (N-terminal biotin on a linker: ttds)
PROPERTY: pKd

>>> df
                          binder           data_value
0      PFRSRSPSEV [GPR6, P46095]  below the threshold
1       KQVVPFSSSV [GDA, Q9Y2T3]  below the threshold
2  GRLLGLETNV [ARHGEF26, Q96DR7]  below the threshold
3     DLDEEEDTHL [PODXL, O00592]  below the threshold
